TARGET_OR_TEST_SYSTEM: 5-hydroxytryptamine receptor 2C (Homo sapiens, UniProt P28335)
Sequence (P28335 whole entry): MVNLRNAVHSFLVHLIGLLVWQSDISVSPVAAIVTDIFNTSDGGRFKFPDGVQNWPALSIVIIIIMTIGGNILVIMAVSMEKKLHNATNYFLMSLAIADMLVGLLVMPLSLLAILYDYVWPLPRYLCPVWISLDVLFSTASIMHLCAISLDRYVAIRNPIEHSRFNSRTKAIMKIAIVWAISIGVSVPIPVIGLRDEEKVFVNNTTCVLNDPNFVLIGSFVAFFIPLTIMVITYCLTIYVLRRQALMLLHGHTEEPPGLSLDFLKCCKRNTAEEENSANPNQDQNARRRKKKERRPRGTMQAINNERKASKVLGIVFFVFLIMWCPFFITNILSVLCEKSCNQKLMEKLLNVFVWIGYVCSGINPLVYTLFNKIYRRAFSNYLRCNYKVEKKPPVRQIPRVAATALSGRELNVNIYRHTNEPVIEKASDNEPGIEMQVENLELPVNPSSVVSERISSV
PROCEDURE_SUMMARY: Agonist activity at human recombinant 5HT2C receptor expressed in CHO K1 cells assessed as calcium mobilisation by FLIPR assay
Assay type: functional, cell-based
pEC50: −log10 of the molar value.
MEASUREMENT_NAME: pEC50

Sample records with pEC50:
> print(dat)
                                smiles.data  numeric.result
1   Cc1cc(=O)n(CCCOc2ccccc2Cl)c(N2CCNCC2)n1            7.25
2  Cc1cc(=O)n(CCCOc2cccc(Cl)c2)c(N2CCNCC2)n1            6.58
3     Cc1ccc(F)cc1OCc1nc(N2CCNCC2)cc(=O)n1C            7.34

A = Cn1c(CCc2ccccc2)nc(N2CCNCC2)cc1=O
B = C[C@@H]1CNCCN1c1cc(=O)n(C)c(CCc2cccc(Cl)c2)n1
C = Cc1cc(=O)n(CCCOc2ccccc2)c(N2CCNCC2)n1
D = Cn1c(CCc2cccc(Cl)c2)nc(N2CCNCC2)cc1=O
Exercise: Sort ascending by pEC50. Response format: the labels, sorted as the prompt asks.
Key: C, A, D, B
(C: 5.99, A: 6.56, D: 7.02, B: 7.59)

P = CCn1c(CCc2ccccc2Cl)nc(N2CCNCC2)cc1=O
Q = Cn1c(COc2cc(F)ccc2Cl)nc(N2CCNCC2)cc1=O
Exercise: For the two items P and Q , which reports the higher pEC50 value? Answer by stating the label of the chosen item.
Key: P
(P: 7.68, Q: 6.44)
